Experiment: RP, Waters ACQUITY Premier BEH C18, 100 × 2.1 mm, 1.7 µm, 40 °C, 0.3 to 0.4 mL/min, estimated dead time 0.73 min; A: water + 0.1% formic acid; B: acetonitrile + 0.1% formic acid; gradient (min/%B) 0/0.5 0.1/0.5 10/80 10.1/99.5 12/0.5 12.1/0.5 14.5/0.5
Settings: stereoisomer not certain
readoutLabel: LC retention time (min)

Example entries and their recorded answers appear below.
CCCCCCC[C@@H](O)CC(=O)O [(R)-3-HYDROXYDECANOIC ACID]: 7.09
O=C(OC1Cc2c(O)cc(O)cc2OC1c1ccc(O)c(O)c1)c1cc(O)c(O)c(O)c1 (stereo not given) [(?)-EPICATECHIN GALLATE]: 4.47

[A] CC(C)=CCCC(C)C1CCC2C3CC=C4CC(O)CCC4(C)C3CCC12C (stereo not given) [DESMOSTEROL]
[B] NC(=O)c1ccc[n+](C2OC(COP(=O)(O)OP(=O)(O)OCC3OC(n4cnc5c(=O)[nH]cnc54)C(O)C3O)C(O)C2O)c1 (stereo not given) [NICOTINAMIDE HYPOXANTHINE DINUCLEOTIDE]
[C] O=Cc1cccc(O)c1 [3-HYDROXYBENZALDEHYDE]
Please rank these compounds by LC retention time in descending order. Use the labels to give the requested order.
A, C, B
(A: 9.25 min, C: 5.11 min, B: 2.02 min)

====

Assay: RP, Waters ACQUITY Premier BEH C18, 100 × 2.1 mm, 1.7 µm, 40 °C, 0.3 to 0.4 mL/min, estimated dead time 0.73 min; A: water + 0.1% formic acid; B: acetonitrile + 0.1% formic acid; gradient (min/%B) 0/0.5 0.1/0.5 10/80 10.1/99.5 12/0.5 12.1/0.5 14.5/0.5
Conditions: stereoisomer not certain
readoutLabel: LC retention time (min)

CC(O)CCCCCC(=O)O (stereo not given) [7-HYDROXYOCTANOIC ACID]: 4.96

[A] Cn1cnc2[nH]c(=O)[nH]c(=O)c21
[B] CCCCCCCCCCCCCCCCCC(=O)O [STEARATE]
[C] COc1cc2c(c(O)c1C(=O)C=Cc1ccc(O)cc1)C(O)CC(C)(C)O2 (stereo not given)
Arrange the 3 entries by LC retention time so the values rise. Arrange the labels as the request states and list them.
A, C, B
(A: 1.2 min, C: 6.64 min, B: 11 min)

====

Test: RP, Waters ACQUITY Premier BEH C18, 100 × 2.1 mm, 1.7 µm, 40 °C, 0.3 to 0.4 mL/min, estimated dead time 0.73 min; A: water + 0.1% formic acid; B: acetonitrile + 0.1% formic acid; gradient (min/%B) 0/0.5 0.1/0.5 10/80 10.1/99.5 12/0.5 12.1/0.5 14.5/0.5
Details: stereoisomer not certain
readoutLabel: LC retention time (min)

CC(=O)NCCCC(=O)O [4-ACETAMIDOBUTANOATE]: 3.27

[a] CC1CCC2(C(=O)O)CCC3(C)C(=CCC4C5(C)CC(O)C(O)C(C)(CO)C5C(O)CC43C)C2C1C (stereo not drawn) [6BETA-HYDROXYASIATIC ACID]
[b] O=C(O)c1cc(=O)[nH]c(=O)[nH]1 [OROTATE]
Exercise: compare a and b ; which one has the greater LC retention time? Reply briefly: the label of your chosen item.
a

[A] O=C(O)c1cc(O)c(O)c(O)c1
[B] CC(CCC(=O)O)C1CCC2C3C(O)CC4CC(O)CCC4(C)C3CC(O)C12C (stereo not given) [CHOLATE]
Thinking about recorded LC retention time values, which is higher, A or B ? // return label of chosen record
B

====

Test: RP, Waters ACQUITY Premier BEH C18, 100 × 2.1 mm, 1.7 µm, 40 °C, 0.3 to 0.4 mL/min, estimated dead time 0.73 min; A: water + 0.1% formic acid; B: acetonitrile + 0.1% formic acid; gradient (min/%B) 0/0.5 0.1/0.5 10/80 10.1/99.5 12/0.5 12.1/0.5 14.5/0.5
Conditions: stereoisomer not certain
readoutLabel: LC retention time (min)

Field: example entries. Status: answers known.
O=c1c(O)c(-c2ccccc2)oc2cc(O)cc(O)c12 [NORIZALPININ]: 7.12
NC(=O)CCCCC1CCSS1 (configuration not stated) [LIPOAMIDE]: 5.5
CCC(C(=O)O)C(=O)O [ETHYLMALONATE]: 3.85
Cn1c(=O)[nH]c2nc[nH]c2c1=O [1-METHYLXANTHINE]: 1.42
CC(CCC(=O)O)C1CCC2C3CCC4CC(O)CCC4(C)C3CC(O)C12C (configuration not stated) [DEOXYCHOLATE]: 7.67
O=C(O)C[C@H](NC(=O)Cc1c[nH]c2ccccc12)C(=O)O [L-N-(1H-INDOL-3-YLACETYL)ASPARTIC ACID]: 4.39
CC12CCC3c4ccc(O)cc4CCC3C1CCC2O (stereo not drawn) [ESTRADIOL-17ALPHA]: 7.15
CC(=O)NCCc1c[nH]c2ccc(O)cc12 [N-ACETYLSEROTONIN]: 4.42

[A] O=C(O)C1CCCCC1 [CYCLOHEXANECARBOXYLIC ACID]
[B] O=C(O)c1ccnc2ccccc12 [4-QUINOLINECARBOXYLATE]
API: POST /compare with A and B ; response names the item with higher LC retention time. Give the chosen item's label as your response.
A
(A: 5.27 min, B: 3.01 min)

====

Assay: RP, Waters ACQUITY Premier BEH C18, 100 × 2.1 mm, 1.7 µm, 40 °C, 0.3 to 0.4 mL/min, estimated dead time 0.73 min; A: water + 0.1% formic acid; B: acetonitrile + 0.1% formic acid; gradient (min/%B) 0/0.5 0.1/0.5 10/80 10.1/99.5 12/0.5 12.1/0.5 14.5/0.5
Settings: stereoisomer not certain
readoutLabel: LC retention time (min)

Observe how each entry below is paired with its result.
O=C(O)C(O)Cc1ccc(O)cc1 (stereo not drawn) [HYDROXYPHENYLLACTATE]: 4.05
Nc1ncnc2nc[nH]c12 [ADENINE]: 1.3
OCC1OC(Oc2ccc3c(c2)OCC2c4cc5c(cc4OC32)OCO5)C(O)C(O)C1O (stereo not drawn) [TRIFOLIRHIZIN]: 4.35

[1] Cn1cc(C(N)=O)ccc1=O [N1-METHYL-2-PYRIDONE-5-CARBOXAMIDE]
[2] C=CC1CN2CCC1CC2C(O)c1ccnc2ccc(OC)cc12 (stereo not drawn) [QUININE]
[3] CCCCCCCCCCCCCCCC(O)C(N)CO (stereo not drawn) [SPHINGANINE]
Arrange the 3 molecules by rising LC retention time, starting with the smallest. Please reply with the labels ordered as requested. Many thanks.
1, 2, 3

[P] CSc1ncnc2nc[nH]c12 [THIOPURINE S-METHYLETHER]
[Q] NC(N)=S [THIOUREA]
// pick larger LC retention time from pair: P vs Q # answer = label of selected item
P

====

Test: RP, Waters ACQUITY Premier BEH C18, 100 × 2.1 mm, 1.7 µm, 40 °C, 0.3 to 0.4 mL/min, estimated dead time 0.73 min; A: water + 0.1% formic acid; B: acetonitrile + 0.1% formic acid; gradient (min/%B) 0/0.5 0.1/0.5 10/80 10.1/99.5 12/0.5 12.1/0.5 14.5/0.5
Conditions: stereoisomer not certain
readoutLabel: LC retention time (min)

Example entries begin here.
O=C(O)CNC(=O)c1ccccc1O: 4.56
COc1cc(C2Oc3cc(C4Oc5cc(O)cc(O)c5C(=O)C4O)ccc3OC2CO)ccc1O (centres undefined): 5.88

[1] Nc1ncnc2c1ncn2C1OC(COP(=O)([O-])OP(=O)([O-])OCC2OC(O)C(O)C2O)C(O)C1O (centres undefined) [ADENOSINE DIPHOSPHATE RIBOSE]
[2] O=Cc1ccc(O)cc1 [4-HYDROXYBENZALDEHYDE]
Parameter check: reported LC retention time is higher for which label, 1 or 2 ? Refer to your chosen entry by its label in the reply.
2

====

Assay: RP, Waters ACQUITY Premier BEH C18, 100 × 2.1 mm, 1.7 µm, 40 °C, 0.3 to 0.4 mL/min, estimated dead time 0.73 min; A: water + 0.1% formic acid; B: acetonitrile + 0.1% formic acid; gradient (min/%B) 0/0.5 0.1/0.5 10/80 10.1/99.5 12/0.5 12.1/0.5 14.5/0.5
Conditions: stereoisomer not certain
readoutLabel: LC retention time (min)

Worked set:
O=c1cc(-c2ccc(O)cc2)oc2cc(O)cc(O)c12: 6.02
O=C(O)CC(C(=O)O)C(O)C(=O)O (stereo unspecified) [ISOCITRATE]: 1.16
Cc1ccc(C(C)C)c(O)c1: 5.78
O=c1cc(-c2ccc(O)cc2)oc2cc(OC3OC(CO)C(O)C(O)C3O)cc(O)c12 (stereo unspecified): 4.75

[1] O=C(O)c1ccc(CO)o1
[2] CC1C(=O)Nc2ccccc21 (stereo unspecified)
# argmax over LC retention time for candidates 1 and 2 Write the label of whichever entry you select.
2

[1] O=C(O)CCc1ccccc1O [3-(2-HYDROXYPHENYL)PROPANOATE]
[2] CSCCC(N)C(=O)O (stereo unspecified)
Endpoint returns the identifier whose LC retention time is numerically larger, either 1 or 2 . Kindly give the label for the entry you pick.
1
(1: 5.47 min, 2: 1.46 min)

Origin of values: the RepoRT retention time repository
